meta.source: ChEMBL document CHEMBL1136305

# key: entry, value: pIC50
Species on record: Homo sapiens
Test: Cellular assay in an inflammation model measuring IL1-beta secretion from isolated human monocytes induced with Staph A
Format: functional
pIC50: −log10 of the molar value.

- structure-as-smiles: "CC(C)[C@H](NC(=O)COc1cccc2ccccc12)C(=O)N[C@@H](CC(=O)O)C(=O)COc1cc(F)cc(F)c1"
  modifier-sign: "="
  pIC50: 4.80
- structure-as-smiles: "CC(C)[C@H](NC(=O)COc1cccc2ccccc12)C(=O)N[C@@H](CC(=O)O)C(=O)COc1c(F)cccc1F"
  modifier-sign: "<"
  pIC50: 4.00
- structure-as-smiles: "CC(C)[C@H](NC(=O)COc1cccc2ccccc12)C(=O)N[C@@H](CC(=O)O)C(=O)COc1ccc(Oc2ccccc2)cc1"
  modifier-sign: "="
  pIC50: 4.72
- structure-as-smiles: "CC(C)[C@H](NC(=O)COc1cccc2ccccc12)C(=O)N[C@@H](CC(=O)O)C(=O)COc1ccc(F)c(F)c1"
  modifier-sign: "="
  pIC50: 4.79
- structure-as-smiles: "CC(C)[C@H](NC(=O)COc1cccc2ccccc12)C(=O)N[C@@H](CC(=O)O)C(=O)COc1ccc(-c2ccccc2)cc1"
  modifier-sign: "="
  pIC50: 4.41
- structure-as-smiles: "CC(C)[C@H](NC(=O)COc1cccc2ccccc12)C(=O)N[C@@H](CC(=O)O)C(=O)COc1ccc(F)cc1F"
  modifier-sign: "="
  pIC50: 4.75
- structure-as-smiles: "CC(C)[C@H](NC(=O)COc1cccc2ccccc12)C(=O)N[C@@H](CC(=O)O)C(=O)COc1c(F)cc(F)cc1F"
  modifier-sign: "="
  pIC50: 4.83
- structure-as-smiles: "CC(C)[C@H](NC(=O)COc1cccc2ccccc12)C(=O)N[C@@H](CC(=O)O)C(=O)COc1cc(F)c(F)cc1F"
  modifier-sign: "="
  pIC50: 4.78
- structure-as-smiles: "CC(C)[C@H](NC(=O)COc1cccc2ccccc12)C(=O)N[C@@H](CC(=O)O)C(=O)COc1c(F)c(F)c(-c2c(F)c(F)c(F)c(F)c2F)c(F)c1F"
  modifier-sign: "="
  pIC50: 4.40
- structure-as-smiles: "CC(C)[C@H](NC(=O)COc1cccc2ccccc12)C(=O)N[C@@H](CC(=O)O)C(=O)COc1c(F)c(F)cc(F)c1F"
  modifier-sign: "="
  pIC50: 5.20
- structure-as-smiles: "CC(C)[C@H](NC(=O)COc1cccc2ccccc12)C(=O)N[C@@H](CC(=O)O)C(=O)COc1c(F)c(F)c(F)c(F)c1F"
  modifier-sign: "="
  pIC50: 5.05
- structure-as-smiles: "CC(C)[C@H](NC(=O)COc1cccc2ccccc12)C(=O)N[C@@H](CC(=O)O)C(=O)COc1cccc(F)c1"
  modifier-sign: "="
  pIC50: 4.92
- structure-as-smiles: "CC(C)[C@H](NC(=O)COc1cccc2ccccc12)C(=O)N[C@@H](CC(=O)O)C(=O)COc1ccc(C(F)(F)F)cc1"
  modifier-sign: "="
  pIC50: 4.91
- structure-as-smiles: "CC(C)[C@H](NC(=O)COc1cccc2ccccc12)C(=O)N[C@@H](CC(=O)O)C(=O)COc1ccc(F)c(F)c1F"
  modifier-sign: "="
  pIC50: 4.69
- structure-as-smiles: "CC(C)[C@H](NC(=O)COc1cccc2ccccc12)C(=O)N[C@@H](CC(=O)O)C(=O)COc1ccc(Oc2ccc(C(F)(F)F)cc2)cc1"
  modifier-sign: "="
  pIC50: 4.60
- structure-as-smiles: "CC(C)[C@H](NC(=O)COc1cccc2ccccc12)C(=O)N[C@@H](CC(=O)O)C(=O)COc1ccccc1"
  modifier-sign: "="
  pIC50: 4.95
- structure-as-smiles: "CC(C)[C@H](NC(=O)COc1cccc2ccccc12)C(=O)N[C@@H](CC(=O)O)C(=O)COc1ccc(F)cc1"
  modifier-sign: "="
  pIC50: 4.85
- structure-as-smiles: "CC(C)[C@H](NC(=O)COc1cccc2ccccc12)C(=O)N[C@@H](CC(=O)O)C(=O)COP(=O)(c1ccccc1)c1ccccc1"
  modifier-sign: "="
  pIC50: 5.46
- structure-as-smiles: "CC(C)[C@H](NC(=O)COc1cccc2ccccc12)C(=O)N[C@@H](CC(=O)O)C(=O)COc1ccc2oc(=O)sc2c1"
  modifier-sign: "="
  pIC50: 4.59
- structure-as-smiles: "CC(C)[C@H](NC(=O)COc1cccc2ccccc12)C(=O)N[C@@H](CC(=O)O)C(=O)COc1ccccc1C(F)(F)F"
  modifier-sign: "="
  pIC50: 4.76
- structure-as-smiles: "CC(C)[C@H](NC(=O)COc1cccc2ccccc12)C(=O)N[C@@H](CC(=O)O)C(=O)COc1c(Cl)cccc1Cl"
  modifier-sign: "="
  pIC50: 4.81
- structure-as-smiles: "CC(C)[C@H](NC(=O)COc1cccc2ccccc12)C(=O)N[C@@H](CC(=O)O)C(=O)COc1ccccc1F"
  modifier-sign: "="
  pIC50: 4.80
- structure-as-smiles: "CC(C)[C@H](NC(=O)COc1cccc2ccccc12)C(=O)N[C@@H](CC(=O)O)C(=O)COc1ccc2ccccc2c1"
  modifier-sign: "="
  pIC50: 4.80
- structure-as-smiles: "CC(C)[C@H](NC(=O)COc1cccc2ccccc12)C(=O)N[C@@H](CC(=O)O)C(=O)COc1cccc(OC(F)(F)F)c1"
  modifier-sign: "="
  pIC50: 4.81
- structure-as-smiles: "CC(C)[C@H](NC(=O)COc1cccc2ccccc12)C(=O)N[C@@H](CC(=O)O)C(=O)COC(=O)c1c(Cl)cccc1Cl"
  modifier-sign: "="
  pIC50: 4.94
- structure-as-smiles: "CC(C)[C@H](NC(=O)COc1cccc2ccccc12)C(=O)N[C@@H](CC(=O)O)C(=O)COc1ccccc1[N+](=O)[O-]"
  modifier-sign: "="
  pIC50: 4.56
- structure-as-smiles: "CC(C)[C@H](NC(=O)COc1cccc2ccccc12)C(=O)N[C@@H](CC(=O)O)C(=O)COc1cc(F)cc(F)c1F"
  modifier-sign: "="
  pIC50: 4.95
- structure-as-smiles: "CC(C)[C@H](NC(=O)COc1cccc2ccccc12)C(=O)N[C@@H](CC(=O)O)C(=O)COc1cccc(C(F)(F)F)c1"
  modifier-sign: "="
  pIC50: 4.78
- structure-as-smiles: "CC(C)[C@H](NC(=O)COc1cccc2ccccc12)C(=O)N[C@@H](CC(=O)O)C(=O)COc1cccc2ccccc12"
  modifier-sign: "="
  pIC50: 4.72
